# Target: Nuclear receptor subfamily 1 group D member 1 (Homo sapiens)
# Assay: modulators of Rev-erb alpha DNA binding, dose response, biochemical, FITC-DNA, fluorescence polarization (AID 1259321)
Activity calls are given as the source filed them.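 How the source made its calls: active means half-maximal concentration for changing protein binding to DNA, from the fitted dose curve, below 10 micromolar; inactive means the rest.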
Reported endpoint: IC50

// known answers, use as guide
Query smiles	Target	IC50
CC1(C)Cc2c(sc3c2c(N)nc(=S)n3Cc2ccccc2)CO1	Nuclear receptor subfamily 1 group D member 1 (Homo sapiens)	inactive
Cc1ccsc1C(=O)Nc1ccc(O)c(-c2nc3ccccc3s2)c1	Nuclear receptor subfamily 1 group D member 1 (Homo sapiens)	6.87 µM
COc1ccc(C)cc1Nc1nc(-c2ccccc2O)nc2ccccc12	Nuclear receptor subfamily 1 group D member 1 (Homo sapiens)	4.05 µM
O=[N+]([O-])c1ccc(-c2nc(-c3cccs3)c(-c3cccs3)[nH]2)cc1	Nuclear receptor subfamily 1 group D member 1 (Homo sapiens)	inactive
O=S(=O)(c1ccc2nc(N3CCN(c4ccccc4F)CC3)ccc2c1)N1CCCCC1	Nuclear receptor subfamily 1 group D member 1 (Homo sapiens)	0.838 µM

IC50 in this record for Cc1ccc(-c2nc3ccccc3s2)cc1NC(=O)c1cc(-n2cnnc2)ccc1Cl : inactive

IC50 in this record for O=C(OCC(=O)c1c[nH]c2ccccc12)c1cc(Br)ccc1O : 5.27 µM

IC50 in this record for CCOc1ccc(CNC(=O)C2CCN(c3nnc(C)c4c(C)n(-c5ccc(C)cc5)nc34)CC2)cc1 : inactive

IC50 in this record for C#CCn1c(=NC(=O)c2ccc(Br)s2)sc2cccc(OC)c21 : 2.4 µM

IC50 in this record for C=CCn1c(C)c(/C=C/c2cc[n+](C)cc2)c2ccccc21 : 9.96 µM

IC50 in this record for N#Cc1c(N)nc(SCC(=O)NCc2ccc3c(c2)OCO3)c(C#N)c1-c1cccs1 : 2.41 µM

IC50 in this record for CN(CC(=O)Nc1ccc(Cl)cc1)S(=O)(=O)c1ccc2c(c1)n(C)c(=O)c(=O)n2C : 5.44 µM

----------
# Target: Nuclear receptor subfamily 1 group D member 1 (Homo sapiens)
# Assay: modulators of Rev-erb alpha DNA binding, dose response, biochemical, FITC-DNA, fluorescence polarization (AID 1259321)
The source made the active and inactive calls.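 How the source made its calls: active means half-maximal concentration for changing protein binding to DNA, from the fitted dose curve, below 10 micromolar; inactive means the rest.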
Your response should consist of one outcome taken from active, inactive

Example results:
Compound	Class label
O=C(COc1ccccc1)Nc1nc2cc3c(cc2s1)OCCO3	active
Nc1ccc2ccc3cccc[n+]3c2c1	active
CCN(CC)S(=O)(=O)c1ccc(N2CCCCC2)c(NC(=O)C2CSC3(C)CCC(=O)N23)c1 (configuration not stated)	inactive

Next item in the queue.
Test call for this compound, please: COc1ccc(Cn2ccc3ccc(-c4ccc5ccn(C(=O)c6ccc(C)cc6)c5c4)cc32)cc1
inactive

----------
# Target: Nuclear receptor subfamily 1 group D member 1 (Homo sapiens) (UniProt P20393)
# Sequence (P20393 whole entry, looked up): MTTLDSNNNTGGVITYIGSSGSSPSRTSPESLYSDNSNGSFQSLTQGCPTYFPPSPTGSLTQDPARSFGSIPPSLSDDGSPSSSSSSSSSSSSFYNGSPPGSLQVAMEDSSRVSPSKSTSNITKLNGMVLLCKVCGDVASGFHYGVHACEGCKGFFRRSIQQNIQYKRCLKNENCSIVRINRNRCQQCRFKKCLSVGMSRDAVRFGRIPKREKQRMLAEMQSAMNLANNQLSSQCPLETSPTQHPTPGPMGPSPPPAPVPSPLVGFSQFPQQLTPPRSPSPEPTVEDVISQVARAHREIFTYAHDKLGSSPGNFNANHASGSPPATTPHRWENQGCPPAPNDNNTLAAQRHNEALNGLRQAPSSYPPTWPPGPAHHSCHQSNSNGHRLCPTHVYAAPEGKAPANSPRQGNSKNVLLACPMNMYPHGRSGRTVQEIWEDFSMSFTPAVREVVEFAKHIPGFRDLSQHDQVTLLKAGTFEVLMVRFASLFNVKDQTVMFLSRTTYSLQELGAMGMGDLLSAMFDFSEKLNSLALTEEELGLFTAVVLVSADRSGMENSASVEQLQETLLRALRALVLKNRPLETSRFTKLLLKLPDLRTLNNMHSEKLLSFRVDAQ
# Assay: modulators of Rev-erb alpha DNA binding, dose response, biochemical, FITC-DNA, fluorescence polarization (AID 1259321)
The source made the active and inactive calls.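 The calls were made as follows: active = half-maximal concentration for changing protein binding to DNA, from the fitted dose curve, below 10 micromolar; inactive = the rest.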
Reported endpoint: IC50

Compound	Reported endpoint	Observed result
c1ccc(N(c2ccccc2)c2nc(N3CCCC3)nc(-n3ccnc3)n2)cc1	IC50	1.14 µM
O=C(O)c1ccccc1C(c1ccccc1)c1ccccc1O (stereo not drawn)	IC50	inactive
Cc1ccc2[nH]c(C)c(/C=C/c3cc[n+](C)cc3)c2c1	IC50	8.6 µM
CN1CCS/C1=C/C=C1/SC(=S)N(Cc2ccccc2)C1=O	IC50	inactive
Cc1cc(NC(=O)CSc2nc3c(C)ccc(C)c3cc2C#N)no1	IC50	3.19 µM
Cc1nonc1NC(=O)CSc1nc2ccccc2cc1C#N	IC50	inactive
Nc1ccc2nc3c(=O)n(C4CCCCC4)c(=O)[nH]c3nc2c1	IC50	6.28 µM
O=C(NCCc1ccccc1)c1ccc2c(c1)S(=O)(=O)c1cc(Cl)ccc1C2=O	IC50	1.84 µM

IC50 in this record for CCCN1C(=O)c2cccc3c(N4CCCCC4)ccc(c23)C1=O : 8.14 µM

IC50 in this record for Cc1sc2nc(SC(C)C)nc(N)c2c1C : 3.72 µM

IC50 in this record for C=CCN1C(=O)/C(=C2/Sc3ccc(OC)cc3N2C)SC1=NCc1ccccc1 : 6.32 µM

IC50 in this record for COc1ccc(CCNC(=O)CSc2nc(-c3ccc(OC)c(OC)c3)ccc2C#N)cc1 : inactive

----------
# Target: Nuclear receptor subfamily 1 group D member 1 (Homo sapiens)
# Assay: modulators of Rev-erb alpha DNA binding, dose response, biochemical, FITC-DNA, fluorescence polarization (AID 1259321)
Active and inactive are the calls of the source.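 The calls were made as follows: active = half-maximal concentration for changing protein binding to DNA, from the fitted dose curve, below 10 micromolar; inactive = the rest.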
Your response should consist of one outcome taken from active, inactive

Example results:
Query smiles	Target	Class label
CCOC(=O)Nc1ccc2c(COC(=O)CNS(=O)(=O)c3ccc(NC(C)=O)cc3)cc(=O)oc2c1	Nuclear receptor subfamily 1 group D member 1 (Homo sapiens)	active
Cc1ccc(Cl)cc1N1CCN(S(=O)(=O)c2ccc(-c3ccc(=O)[nH]n3)o2)CC1	Nuclear receptor subfamily 1 group D member 1 (Homo sapiens)	inactive
COc1ccccc1C(=O)Nc1nnc(-c2ccc(F)cc2)s1	Nuclear receptor subfamily 1 group D member 1 (Homo sapiens)	active
COc1ccc(C(=O)Nc2nc(C)c(C(C)=O)s2)cc1S(=O)(=O)N1CCOCC1	Nuclear receptor subfamily 1 group D member 1 (Homo sapiens)	inactive
CCOC(=O)CC(=O)CSc1nc(-c2ccc3c(c2)OCO3)cc(C(F)(F)F)c1C#N	Nuclear receptor subfamily 1 group D member 1 (Homo sapiens)	inactive
Nc1cccc(N2C(=O)c3cccc4c(N)ccc(c34)C2=O)c1	Nuclear receptor subfamily 1 group D member 1 (Homo sapiens)	inactive
COCCn1c(=NC(=O)CCS(=O)(=O)c2ccccc2)sc2cc(C(=O)OC)ccc21	Nuclear receptor subfamily 1 group D member 1 (Homo sapiens)	inactive
CCc1nnc(NC(=O)CSc2nc3cc4c(cc3cc2CC)OCCO4)s1	Nuclear receptor subfamily 1 group D member 1 (Homo sapiens)	active

Test call for this compound, please: CCOc1ccc(S(=O)(=O)Nc2nc3ccccc3nc2-n2ccc(=NC(=O)c3ccccc3C)cc2)cc1
inactive

Test call for this compound, please: O=C(OCCN1C(=O)c2cccc3c(N4CCOCC4)ccc(c23)C1=O)c1ccccc1Cl
active

Test call for this compound, please: O=C(CSc1nc2ccccc2c(=O)n1-c1ccc(F)cc1)Nc1cc(S(=O)(=O)N2CCOCC2)ccc1Cl
inactive

Test call for this compound, please: COC(=O)c1ccc(Cn2ccc3ccc(-c4ccc5ccn(C(=O)c6ccccc6OC)c5c4)cc32)cc1
active

Test call for this compound, please: CCN1/C(=C/c2ccc3cc(C)ccc3[n+]2CC)Sc2cc(C)ccc21
inactive

Test call for this compound, please: Cc1coc(NC(=O)CSc2nc(-c3ccc(Cl)cc3)cc(C(F)(F)F)c2C#N)n1
inactive

Test call for this compound, please: Cc1cc(C)c2c(N)c(C(=O)N/N=C/c3cccs3)sc2n1
active

Test call for this compound, please: Oc1ccc2ccc3cccc[n+]3c2c1
inactive

Test call for this compound, please: CCOC(=O)c1nn(-c2ccc(Cl)cc2)c2nc(-c3ccc(C)cc3)c(C#N)c(=O)n12
active

Test call for this compound, please: CCc1nc(SCC(=O)NCc2ccco2)c2c3c(sc2n1)CCCC3
inactive

Test call for this compound, please: COc1ccc2cc(C)c(SCC(=O)Nc3cc(C)on3)nc2c1
inactive

Test call for this compound, please: Cc1nc(SCC(=O)Nc2ccccc2)c2oc3ccccc3c2n1
inactive

Test call for this compound, please: COC(=O)c1ccc(Cn2ccc3ccc(-c4ccc5ccn(C(=O)c6ccc(C)cc6)c5c4)cc32)cc1
active

Test call for this compound, please: CNC(=O)c1ccsc1NC(=O)c1sc2ccccc2c1Cl
inactive

Test call for this compound, please: CCCNC(=O)Nc1ccc2c(c1)C(=O)N(C)[C@H]1CC[C@H](CC(=O)NCC3CCCCC3)O[C@@H]1CO2
inactive

Test call for this compound, please: Cc1ccc(/C=C/c2ccc(N(C)C)cc2)[n+](C)c1
active

Test call for this compound, please: Cc1ccc(-c2cc(C(F)F)nc3sc4c(=O)[nH]cnc4c23)cc1
active

----------
# Target: Nuclear receptor subfamily 1 group D member 1 (Homo sapiens)
# Assay: modulators of Rev-erb alpha DNA binding, dose response, biochemical, FITC-DNA, fluorescence polarization (AID 1259321)
Activity calls are given as the source filed them.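 Rule for the calls: active = half-maximal concentration for changing protein binding to DNA, from the fitted dose curve, below 10 micromolar; inactive = the rest.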
Your response should consist of one outcome taken from Y = active, N = inactive

Example results:
Compound	Class label
Cc1cc(-c2ccccc2)nc2oc3c(c12)NC(=O)CN(c1ccccc1)C3=O	Y
CC(=O)Oc1ccc2oc(/C=C/N(C)C)c([N+](=O)[O-])c2c1	Y
CN1C(=O)c2cc(NC(=O)Nc3ccccc3F)ccc2OC[C@H]2O[C@@H](CC(=O)NCc3ccc(-c4ccccc4)cc3)CC[C@@H]21	Y
O=C(OCCN1C(=O)c2cccc3c(N4CCOCC4)ccc(c23)C1=O)c1ccc(Cl)cc1Cl	N
C=CCOc1ccc(C2C(C(=O)c3cccs3)=C(O)C(=O)N2c2nnc(C)s2)cc1 (stereo unspecified)	Y

Test call for this compound, please: COc1cccc(NC(=O)CSc2ncnc3c2oc2ccccc23)c1
N

Test call for this compound, please: COc1ccc(-c2cc(C(=O)Nc3cccnc3Cl)no2)cc1OC
Y

Test call for this compound, please: O=C(CSc1ncnc2c1oc1ccccc12)NCc1ccc(F)cc1
Y

Test call for this compound, please: O=C(CSc1nnc(-c2cccs2)n1-c1ccccc1)N1CCCc2ccccc21
N

Test call for this compound, please: COc1ccc(Cl)cc1CC1(C)C(=O)Nc2ccc(-c3ccccc3OC)cc21 (stereo unspecified)
Y
